target: GABA transporter 2 (Mus musculus, UniProt P31651); assay: Inhibition of mouse GAT2 expressed in HEK293 cells assessed as decrease in [3H]GABA uptake
Sequence (P31651 whole entry): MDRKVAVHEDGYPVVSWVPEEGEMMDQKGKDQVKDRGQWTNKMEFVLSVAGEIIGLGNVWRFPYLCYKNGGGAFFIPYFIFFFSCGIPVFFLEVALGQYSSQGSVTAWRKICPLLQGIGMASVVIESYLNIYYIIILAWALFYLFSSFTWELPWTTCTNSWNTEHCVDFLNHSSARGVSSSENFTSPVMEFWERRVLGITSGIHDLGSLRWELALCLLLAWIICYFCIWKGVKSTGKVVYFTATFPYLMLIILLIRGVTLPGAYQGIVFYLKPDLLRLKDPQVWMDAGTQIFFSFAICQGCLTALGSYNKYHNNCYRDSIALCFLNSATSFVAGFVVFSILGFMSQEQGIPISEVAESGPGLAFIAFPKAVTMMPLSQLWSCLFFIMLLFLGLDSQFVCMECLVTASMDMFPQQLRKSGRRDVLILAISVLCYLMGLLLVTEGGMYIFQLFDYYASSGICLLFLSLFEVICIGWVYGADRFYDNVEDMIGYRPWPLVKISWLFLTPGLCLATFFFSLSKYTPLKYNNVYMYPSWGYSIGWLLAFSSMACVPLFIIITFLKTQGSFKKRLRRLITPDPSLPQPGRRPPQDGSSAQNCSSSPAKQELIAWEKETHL
Each item that follows carries a reported pIC50.
API: returns pIC50 as number; meaning -log10 of concentration in mol/L.

{"Compound": "NCCC(C(=O)NCc1ccccc1)N1CCN(C(c2ccccc2)c2ccccc2)CC1 (stereo not given)", "pIC50": 4.42}
{"Compound": "CN(CCCC(c1ccccc1)c1ccccc1)C(CCN)C(=O)NCc1ccccc1Cl (stereo not given)", "pIC50": 5.11}
{"Compound": "Cc1ccc(CNC(=O)C(CCN)N(C)CCCC(c2ccccc2)c2ccccc2)cc1 (stereo not given)", "pIC50": 4.85}
{"Compound": "NCCC(C(=O)NCc1ccc(F)cc1)N1CCC(=C(c2ccccc2)c2ccccc2)CC1 (stereo not given)", "pIC50": 4.99}
{"Compound": "CN(CCC=C(c1ccccc1)c1ccccc1)C(CCN)C(=O)NCc1ccc(Cl)cc1 (stereo not given)", "pIC50": 5.01}
{"Compound": "CN(CCC=C(c1ccccc1)c1ccccc1)C(CCN)C(=O)NCc1ccccc1Cl (stereo not given)", "pIC50": 5.19}
{"Compound": "Cc1ccc(CNC(=O)C(CCN)N(C)CCC=C(c2ccccc2)c2ccccc2)cc1 (stereo not given)", "pIC50": 5.02}
{"Compound": "NCCC(NCCC=C(c1ccccc1)c1ccccc1)C(=O)NCc1ccc(F)cc1 (stereo not given)", "pIC50": 4.92}

Given item NCCC(C(=O)NCc1ccccc1)N1CCC(C(c2ccccc2)c2ccccc2)CC1 (stereo not given) , the value recorded as its pIC50 is 4.92

Given item NCCC(C(=O)NCc1ccccc1Cl)N1CCN(C(c2ccccc2)c2ccccc2)CC1 (stereo not given) , the value recorded as its pIC50 is 4.66

---

Each item that follows carries a reported Activity.
biological target: Sodium- and chloride-dependent GABA transporter 1 (Mus musculus); test: Displacement of NO711 from mouse GAT1 expressed in HEK293 cells assessed as NO711 binding at 100 uM by LC-MS/MS analysis; type: cell-based
Supply the numeric figure in %, leaving out any unit text.

Given item NCCC(C(=O)NCc1ccc(Cl)cc1)N1CCN(C(c2ccccc2)c2ccccc2)CC1 (centres undefined) , the value recorded as its Activity is 53

Given item NCCC(C(=O)NCc1ccccc1)N1CCN(C(c2ccccc2)c2ccccc2)CC1 (centres undefined) , the value recorded as its Activity is 83

Given item NCCC(NCCC=C(c1ccccc1)c1ccccc1)C(=O)NCc1ccccc1Cl (centres undefined) , the value recorded as its Activity is 53

Given item NCCC(C(=O)NCc1ccccc1Cl)N1CCN(C(c2ccccc2)c2ccccc2)CC1 (centres undefined) , the value recorded as its Activity is 55

---

Molecular target: UniProtKB P31650
Sequence (P31650 whole entry): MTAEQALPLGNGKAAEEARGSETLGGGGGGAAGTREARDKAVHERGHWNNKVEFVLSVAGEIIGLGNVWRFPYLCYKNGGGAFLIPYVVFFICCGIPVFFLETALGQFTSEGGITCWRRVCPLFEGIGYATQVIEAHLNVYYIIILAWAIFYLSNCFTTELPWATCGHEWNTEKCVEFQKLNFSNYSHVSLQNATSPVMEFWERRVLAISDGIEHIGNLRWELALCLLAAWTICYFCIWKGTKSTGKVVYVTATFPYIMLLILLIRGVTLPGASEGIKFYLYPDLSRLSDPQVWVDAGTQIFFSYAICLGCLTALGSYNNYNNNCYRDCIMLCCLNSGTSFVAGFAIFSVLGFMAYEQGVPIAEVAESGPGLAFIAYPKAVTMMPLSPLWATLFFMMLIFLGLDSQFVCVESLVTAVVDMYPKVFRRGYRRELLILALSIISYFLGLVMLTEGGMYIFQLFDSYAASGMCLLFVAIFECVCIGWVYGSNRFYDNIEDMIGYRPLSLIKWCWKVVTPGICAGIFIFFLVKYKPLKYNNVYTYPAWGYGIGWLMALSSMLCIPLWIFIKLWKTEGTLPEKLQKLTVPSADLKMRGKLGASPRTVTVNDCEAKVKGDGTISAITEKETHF
Test: Inhibition of mouse GAT4 expressed in HEK293 cells assessed as decrease in [3H]GABA uptake
Each item that follows carries a reported pIC50.
API: returns pIC50 as number; meaning -log10 of concentration in mol/L.

Consider the following illustrative entries.
{"Molecule": "NCCC(NCCC=C(c1ccccc1)c1ccccc1)C(=O)NCc1ccc(F)cc1 (stereo not given)", "pIC50": 4.50}
{"Molecule": "NCCC(C(=O)NCc1ccccc1Cl)N1CCC(C(c2ccccc2)c2ccccc2)CC1 (stereo not given)", "pIC50": 4.99}

Given item Cc1ccc(CNC(=O)C(CCN)N2CCN(C(c3ccccc3)c3ccccc3)CC2)cc1 (stereo not given) , the value recorded as its pIC50 is 4.63

Given item NCCC(C(=O)NCc1ccccc1)N1CCN(C(c2ccccc2)c2ccccc2)CC1 (stereo not given) , the value recorded as its pIC50 is 4.23

Given item CN(CCCC(c1ccccc1)c1ccccc1)C(CCN)C(=O)NCc1ccccc1Cl (stereo not given) , the value recorded as its pIC50 is 4.94

Given item NCCC(C(=O)NCc1ccc(F)cc1)N1CCC(=C(c2ccccc2)c2ccccc2)CC1 (stereo not given) , the value recorded as its pIC50 is 4.87

Given item CN(CCC=C(c1ccccc1)c1ccccc1)C(CCN)C(=O)NCc1ccccc1 (stereo not given) , the value recorded as its pIC50 is 4.80

---

experiment: Toxicity in albino Swiss (CD-1) mouse assessed as mortality at 100 mg/kg measured after electroshock exposure; format: organism-based; parameters: dose 100 mg/kg; details: in vivo, read-out: Activity
Assay Metric: mortality (%)
Supply the numeric figure in %, leaving out any unit text.

Given item NCCC(C(=O)NCc1ccc(Cl)cc1)N1CCN(C(c2ccccc2)c2ccccc2)CC1 (stereo unspecified) , the value recorded as its mortality is 65

---

Molecular target: GABA transporter 3 (Mus musculus, UniProt P31649)
Sequence (P31649 whole entry): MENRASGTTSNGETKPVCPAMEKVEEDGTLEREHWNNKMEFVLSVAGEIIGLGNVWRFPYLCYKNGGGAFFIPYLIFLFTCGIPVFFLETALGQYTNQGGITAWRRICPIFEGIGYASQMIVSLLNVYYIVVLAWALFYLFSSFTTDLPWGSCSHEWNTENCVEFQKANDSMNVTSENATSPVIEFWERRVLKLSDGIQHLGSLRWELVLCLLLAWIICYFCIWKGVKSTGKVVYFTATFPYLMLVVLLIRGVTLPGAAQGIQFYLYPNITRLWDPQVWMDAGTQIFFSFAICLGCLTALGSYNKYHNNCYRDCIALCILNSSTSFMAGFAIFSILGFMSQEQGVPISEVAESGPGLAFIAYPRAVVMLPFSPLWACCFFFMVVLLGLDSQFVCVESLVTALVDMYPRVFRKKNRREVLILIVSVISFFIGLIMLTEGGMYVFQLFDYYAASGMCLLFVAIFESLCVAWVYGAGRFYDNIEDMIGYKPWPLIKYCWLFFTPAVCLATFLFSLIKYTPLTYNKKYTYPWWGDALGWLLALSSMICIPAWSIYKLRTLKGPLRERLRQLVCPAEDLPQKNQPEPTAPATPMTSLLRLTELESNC
Experiment: Inhibition of mouse GAT3 expressed in HEK293 cells assessed as decrease in [3H]GABA uptake
Assay Metric: pIC50
API: returns pIC50 as number; meaning -log10 of concentration in mol/L.

Consider the following illustrative entries.
{"Compound": "CN(CCC=C(c1ccccc1)c1ccccc1)C(CCN)C(=O)NCc1ccc(F)cc1 (stereo not given)", "Observed Result": 4.96}
{"Compound": "CN(CCCC(c1ccccc1)c1ccccc1)C(CCN)C(=O)NCc1ccccc1 (stereo not given)", "Observed Result": 4.53}
{"Compound": "NCCC(C(=O)NCc1ccccc1Cl)N1CCC(C(c2ccccc2)c2ccccc2)CC1 (stereo not given)", "Observed Result": 4.96}
{"Compound": "Cc1ccc(CNC(=O)C(CCN)N(C)CCCC(c2ccccc2)c2ccccc2)cc1 (stereo not given)", "Observed Result": 4.64}
{"Compound": "NCCC(C(=O)NCc1ccc(Cl)cc1)N1CCC(=C(c2ccccc2)c2ccccc2)CC1 (stereo not given)", "Observed Result": 4.89}
{"Compound": "Cc1ccc(CNC(=O)C(CCN)N2CCC(=C(c3ccccc3)c3ccccc3)CC2)cc1 (stereo not given)", "Observed Result": 4.79}
{"Compound": "CN(CCCC(c1ccccc1)c1ccccc1)C(CCN)C(=O)NCc1ccc(Cl)cc1 (stereo not given)", "Observed Result": 4.67}
{"Compound": "CN(CCC=C(c1ccccc1)c1ccccc1)C(CCN)C(=O)NCc1ccc(Cl)cc1 (stereo not given)", "Observed Result": 4.95}

Given item Cc1ccc(CNC(=O)C(CCN)N2CCC(C(c3ccccc3)c3ccccc3)CC2)cc1 (stereo not given) , the value recorded as its pIC50 is 4.84

Given item NCCC(NCCC=C(c1ccccc1)c1ccccc1)C(=O)NCc1ccccc1 (stereo not given) , the value recorded as its pIC50 is 4.48

Given item NCCC(C(=O)NCc1ccc(Cl)cc1)N1CCN(C(c2ccccc2)c2ccccc2)CC1 (stereo not given) , the value recorded as its pIC50 is 4.97

Given item NCCC(C(=O)NCc1ccc(Cl)cc1)N1CCC(C(c2ccccc2)c2ccccc2)CC1 (stereo not given) , the value recorded as its pIC50 is 5.02

Given item NCCC(C(=O)NCc1ccccc1)N1CCC(=C(c2ccccc2)c2ccccc2)CC1 (stereo not given) , the value recorded as its pIC50 is 4.86

All values here come from ChEMBL document CHEMBL3286252.
